Data credit: patent US10245847B2

Please respond with reported LogP for every item in the list.
test: physchem
I only need the number, thanks.

Exercise: Param item = OCC(O)CO [Glycerin] ; retrieve measured LogP.
Key: −1.76

Exercise: Param item = CCCCOCCOCCOCCCC [diethylene glycol di-n-butyl ether] ; retrieve measured LogP.
Key: 1.92

Exercise: Param item = COCCC(=O)N(C)C [3-methoxy-N,N-dimethyl propanamide] ; retrieve measured LogP.
Key: 0.73

Exercise: Param item = CC(=O)OCCOC(C)=O [Ethylene glycol diacetate] ; retrieve measured LogP.
Key: 0.40

---

Please respond with reported logP for every item in the list.
experiment: log P value (water octanol distribution coefficient) of organic solvents; settings: octanol/water
I only need the number, thanks.

Exercise: Param item = CCC(O)CO (centres unmarked) ; retrieve measured logP.
Key: 0.06

Exercise: Param item = CCCCOCCOC(C)=O [ethylene glycol monobutyl ether acetate] ; retrieve measured logP.
Key: 1.79
